target: human CD33 R109A (human, UniProt P20138 18-364); experiment: flow cytometry on HEK293-T, alanine scan
Sequence (P20138 18-364 R109A limits assumed): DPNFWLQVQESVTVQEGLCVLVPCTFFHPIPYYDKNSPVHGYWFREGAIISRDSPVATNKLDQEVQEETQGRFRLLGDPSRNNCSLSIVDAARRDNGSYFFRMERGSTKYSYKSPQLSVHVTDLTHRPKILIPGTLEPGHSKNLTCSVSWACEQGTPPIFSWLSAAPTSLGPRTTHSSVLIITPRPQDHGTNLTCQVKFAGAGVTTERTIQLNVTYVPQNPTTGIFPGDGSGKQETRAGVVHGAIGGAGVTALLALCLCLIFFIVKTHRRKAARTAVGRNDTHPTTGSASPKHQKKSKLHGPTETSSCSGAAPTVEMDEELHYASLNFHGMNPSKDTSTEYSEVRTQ
Parameter Mean % WT Binding: see the listing below.

- Binder: "Refmab #3 (antibody, V domains shown, The alanine scan used IgG or Fab) VH: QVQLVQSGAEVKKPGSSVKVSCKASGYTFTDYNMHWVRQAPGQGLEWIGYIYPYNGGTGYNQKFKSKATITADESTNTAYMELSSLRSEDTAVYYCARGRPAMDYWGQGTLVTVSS VL: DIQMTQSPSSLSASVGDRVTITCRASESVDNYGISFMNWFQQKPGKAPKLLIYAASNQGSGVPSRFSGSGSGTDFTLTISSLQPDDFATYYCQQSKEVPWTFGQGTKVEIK"
  Mean % WT Binding [% WT binding]: 112
- Binder: "Refmab #2 (antibody, V domains shown, The alanine scan used IgG or Fab) VH: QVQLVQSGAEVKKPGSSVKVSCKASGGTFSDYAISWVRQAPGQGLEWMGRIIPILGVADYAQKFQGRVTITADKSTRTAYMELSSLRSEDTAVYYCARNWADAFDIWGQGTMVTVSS VL: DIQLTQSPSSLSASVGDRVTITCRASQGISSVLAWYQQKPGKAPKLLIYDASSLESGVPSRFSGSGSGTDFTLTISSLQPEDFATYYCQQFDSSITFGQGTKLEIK"
  Mean % WT Binding [% WT binding]: 104
- Binder: "Refmab #1 (antibody, V domains shown, The alanine scan used IgG or Fab; also called hP67.6) VH: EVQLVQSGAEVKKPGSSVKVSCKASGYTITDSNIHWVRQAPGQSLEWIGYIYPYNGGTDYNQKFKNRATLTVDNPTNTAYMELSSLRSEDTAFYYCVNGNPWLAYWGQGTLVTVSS VL: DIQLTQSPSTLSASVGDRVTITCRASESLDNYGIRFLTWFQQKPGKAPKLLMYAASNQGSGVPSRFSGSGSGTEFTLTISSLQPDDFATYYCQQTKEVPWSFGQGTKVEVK"
  Mean % WT Binding [% WT binding]: 101
- Binder: "Refmab #4 (antibody, V domains shown, The alanine scan used IgG or Fab) VH: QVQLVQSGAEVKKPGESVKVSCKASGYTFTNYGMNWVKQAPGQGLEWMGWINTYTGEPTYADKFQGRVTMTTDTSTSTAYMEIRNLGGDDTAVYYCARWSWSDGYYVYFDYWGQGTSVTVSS VL: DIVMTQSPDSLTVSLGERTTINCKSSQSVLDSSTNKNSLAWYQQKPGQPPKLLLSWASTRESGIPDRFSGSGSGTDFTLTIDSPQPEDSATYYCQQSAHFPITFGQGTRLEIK"
  Mean % WT Binding [% WT binding]: 99.5
